System: SK-MEL-5 melanoma
Experiment: NCI tumour cell line growth inhibition, 48 h; in the data active means GI50 below about 0.43 µM; inactive means the rest
Tick one outcome: 1.0 for active, 0.0 for inactive

In: // param item: C=C(C)[C@@H]1CC[C@]2(C)[C@H](CC=C3[C@@H]4CC(C)(C)CC[C@]4(C(=O)OC)CC[C@]32C)[C@@]1(C)CC/C(N)=N/O ; yields the recorded call
Out: 0.0

In: Would you mind doing CCCCn1c(=O)c(/C=C/C(=O)/C=C/c2ccc(O)c(OC)c2)cc2ccc(Cl)cc21 as well?
Out: 0.0

In: What about COc1cc(C)c(N(C)C(=O)CN(C)C)cc1Nc1nc(Nc2cccc(F)c2C(N)=O)c2cc[nH]c2n1 ?
Out: 0.0

In: Field entry: O=c1c2ccccc2c(C=NCCNCCO)c2oc3ccccc3n12
Out: 0.0

In: Query CC(=O)OC1CC(C)c2c1ncnc2N1CCN(C(=O)OC(C)(C)C)CC1 (centres undefined) next
Out: 0.0

In: Check CO/N=C(\COc1ccc2c(=O)cc(-c3ccccc3)oc2c1)c1ccc(OC)cc1 too.
Out: 0.0

In: Entry CCCCCn1ncc(-c2c(O)c(O)cc3c(O)c(-c4c(C)cc5c(-c6cnn(CCCCC)n6)c(O)c(O)cc5c4O)c(C)cc23)n1 please
Out: 1.0

In: Request: CCC(=O)[O-].CCC(=O)[O-].N.N.N.N.[Co+3].[O-][Cl+3]([O-])([O-])[O-]
Out: 0.0

In: Field entry: COc1ccc(-c2ccc(=O)oc2-c2cc(OC)c(OC)c(OC)c2)cc1O
Out: 1.0
